Attribution: paper PMC8745710

Reported activity at 100 µM values for the following compounds.
- Test system: LoVo cell line
- METHOD: Intracellular ROS level (DCFH-DA), LoVo cells
- Format: cell-based
- MEASUREMENT CONDITIONS: Homo sapiens, 4 h, compound 100 μM, without H2O2, n = 5, read-out: ROS scavenging activity, Mean E/E0 ± SD, without H2O2
Write the value in % as a bare number.

Below: 3 compounds and their reported activity at 100 µM.
>  <COMPOUND>
Cc1cc(C)c(C(=O)NCc2nn(CC(=O)NN=Cc3ccc(F)cc3)c(=S)o2)c(S)n1

>  <activity at 100 µM [%]>
74

$$$$
>  <COMPOUND>
Cc1cc(C)c(C(=O)NCc2nn(CC(=O)NN=Cc3ccc(C(F)(F)F)cc3)c(=S)o2)c(S)n1

>  <activity at 100 µM [%]>
124

$$$$
>  <COMPOUND>
Cc1cc(C)c(C(=O)NCc2nn(CC(=O)NN=Cc3ccc(Cl)cc3)c(=S)o2)c(S)n1

>  <activity at 100 µM [%]>
85

$$$$

Entry `Cc1cc(C)c(C(=O)NCc2nn(CC(=O)NN=Cc3ccccc3Br)c(=S)o2)c(S)n1` : reported activity at 100 µM = ? 70

Entry `Cc1ccc(C=NNC(=O)Cn2nc(CNC(=O)c3c(C)cc(C)nc3S)oc2=S)cc1` : reported activity at 100 µM = ? 107

Entry `Cc1cc(C)c(C(=O)NCc2nn(CC(=O)NN=Cc3ccc(C#N)cc3)c(=S)o2)c(S)n1` : reported activity at 100 µM = ? 76
